Target: Leukotriene C4 synthase (Homo sapiens, UniProt Q16873)
Sequence (Q16873 whole entry): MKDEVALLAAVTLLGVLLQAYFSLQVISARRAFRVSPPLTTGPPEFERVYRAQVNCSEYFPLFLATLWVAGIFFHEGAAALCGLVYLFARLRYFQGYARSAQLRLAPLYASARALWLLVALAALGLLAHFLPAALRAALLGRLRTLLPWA
Test: Recombinant human LTC4 synthase is expressed in […] and the purified enzyme is dissolved in 25 mM tris-buffer pH 7.8 supplemented with 0.1 mM glutathione (GSH) and stored at −80 °C. […] The buffer is used as background. Runs are performed in duplicates. […] The reaction is stopped after 1 min by addition of double the reaction volume of a stop solution (MeOH:H2O:acetic acid 70:30:1).
Readout: pIC50
# log scale: pIC50 equals minus log10 of the concentration in mol/L

Task item: Dear colleague, I am looking for the recorded pIC50 of the following compound: COc1cc(N(Cc2ccc(C)cc2)CC2CC2)cnc1C(=O)C1CC1C(=O)O (stereo not drawn)
Reply: 7.66

Task item: Follow-up item: COc1cc(N(Cc2cc(F)cc3c2OCOC3)CC2CC2)cnc1C(=O)C1CC1C(=O)O (stereo not drawn)
Reply: 6.32

Task item: Follow-up item: COc1cc(N(Cc2cc(Cl)cc3c2OCO3)CC2CC2)cnc1C(=O)C1CC1C(=O)O (stereo not drawn)
Reply: 6.23
